# measurement_target: PTGER4 (EP4) (Homo sapiens (Human), UniProt P35408)
# Sequence (P35408 whole entry): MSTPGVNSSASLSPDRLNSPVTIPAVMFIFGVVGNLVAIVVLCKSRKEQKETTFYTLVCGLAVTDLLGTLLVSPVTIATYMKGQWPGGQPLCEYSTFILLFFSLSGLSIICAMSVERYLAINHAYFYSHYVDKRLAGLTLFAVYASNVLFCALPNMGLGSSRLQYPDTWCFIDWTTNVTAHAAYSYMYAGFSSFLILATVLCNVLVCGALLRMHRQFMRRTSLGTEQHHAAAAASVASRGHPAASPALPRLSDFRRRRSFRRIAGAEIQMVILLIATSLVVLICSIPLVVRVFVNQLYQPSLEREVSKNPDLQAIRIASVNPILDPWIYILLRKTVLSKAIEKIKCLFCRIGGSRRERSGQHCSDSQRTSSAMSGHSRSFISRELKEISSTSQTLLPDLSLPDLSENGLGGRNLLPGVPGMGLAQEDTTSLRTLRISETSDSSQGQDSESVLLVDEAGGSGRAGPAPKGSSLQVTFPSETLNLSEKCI
# protocol_details: cell-based
Please respond with condition met when measured IC50 is strictly beneath 30 nM, and with condition not met in all other cases.

O=c1c(O)c(-c2ccc(-c3cc(NCCc4cc(F)c5sccc5c4)ncn3)cc2)c1=O [Example 536] ... condition met
COc1cc2c(cc1CCNc1cc(-c3ccc(CC(=O)O)c(OC(F)(F)F)c3)ncn1)OCCO2 [Example 450] ... condition not met
CCCc1cc(-c2cc(NCCc3cc4ccsc4cc3OC)ncn2)ccc1C(=O)O [Example 377] ... condition not met
CCCc1cc(-c2cc(NCCc3c(OC)cc4ccccc4c3C)ncn2)ccc1C(=O)O [Example 380] ... condition met
COc1cc2c(cc1CCNc1cc(-c3ccc(CC(=O)O)c(CC(C)C)c3)ncn1)OCCO2 [Example 411] ... condition not met

In: Field: below-cutoff. Rule: recorded IC50 strictly less than 30 nM. Subject: CCOc1cc(-c2cc(NCCc3c(OC)cc4ccccc4c3C)ncn2)ccc1OCCC(=O)O [Example 423]
Out: condition met

In: Hello, is IC50 of the following molecule strictly smaller than 30 nM? O=c1nc(-c2ccc(-c3cc(NCCc4cc(F)c5sccc5c4)ncn3)cc2)o[nH]1 [Example 543]
Out: condition not met

In: Given the entry CCCOc1cc(-c2cc(NCCc3ccc4ccccc4c3C)ncn2)ccc1C(=O)O [Ex 183] , would its reported IC50 be below 30 nM?
Out: condition not met

In: Hello, is IC50 of the following molecule strictly smaller than 30 nM? CCOc1cc(-c2cc(NCCc3cc4ccoc4cc3OC)ncn2)sc1C(=O)O [Ex 12]
Out: condition met

* * *

As shown below, each of these molecules has a reported log10(IC50) value.
# measurement_target: PTGER2 (EP2) (Homo sapiens (Human), UniProt P43116)
# Sequence (P43116 whole entry): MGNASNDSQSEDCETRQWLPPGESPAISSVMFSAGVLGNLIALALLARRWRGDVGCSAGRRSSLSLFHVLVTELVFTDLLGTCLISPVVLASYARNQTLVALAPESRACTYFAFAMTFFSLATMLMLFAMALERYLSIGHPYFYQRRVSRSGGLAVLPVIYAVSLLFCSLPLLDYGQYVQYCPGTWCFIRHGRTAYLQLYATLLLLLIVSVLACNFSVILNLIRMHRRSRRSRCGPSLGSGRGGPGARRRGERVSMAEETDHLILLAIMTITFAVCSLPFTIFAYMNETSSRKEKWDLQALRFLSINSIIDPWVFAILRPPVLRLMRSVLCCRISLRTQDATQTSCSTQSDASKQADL
# protocol_details: hEP2 b-arrestin assay (PathHunter HEK 293 PTGER2 b-arrestin cells)
# recorded_conditions: antagonistic activity, beta-arrestin assay; read-out: hEP2 b-arr IC50
Hello, just confirming the data are log10 of IC50 with units of nM.

Would you please look over these solved cases?
CCCCOc1cc(-c2cc(NCCc3ccc4ccccc4c3C)ncn2)ccc1C(=O)O [Ex 169] ... 2.15
CCOc1cc(-c2cc(NCCc3cc4c(cnn4C)cc3OC)ncn2)sc1C(=O)O [Ex 251] ... 2.02
CCOc1cc(-c2cc(NCCc3c(OC)cc4ccccc4c3C)ncn2)ccc1CC(=O)O [Ex 61] ... 2.17
CCOc1cc(-c2cc(NCCc3c(C#N)cc4ccccc4c3C)ncn2)sc1C(=O)O [Ex 2] ... 2.05

In: Write down log10(IC50) measured for item CCOc1c(CC(=O)O)ccc(-c2cc(NCCc3cc(F)c4sccc4c3)ncn2)c1F [Example 564]
Out: 2.91

In: Answer with reported log10(IC50) of CCCOc1cc(-c2cc(NCCc3ccc4ccccc4c3C)ncn2)ccc1C(=O)O [Ex 183]
Out: 2.06

In: Look up and report measured log10(IC50) for this entry: CCOc1cc(-c2cc(NCCc3c(OC)cc4c(c3C)OCCO4)ncn2)ccc1CC(=O)O [Example 399]
Out: 1.00

In: Indicate its recorded log10(IC50); the molecule in question is CCOc1cc(-c2cc(NCCc3ccc4cc[nH]c4c3)ncn2)sc1-c1noc(=O)[nH]1 [Example 343]
Out: 0.95

In: Give recorded log10(IC50). CCSc1cc(-c2cc(NCCc3cc4ccoc4cc3OC)ncn2)ccc1C(=O)O [Ex 158]
Out: 1.36
